target: T1, internally quenched fluorogenic peptide (FRET substrate), Ac-DED(EDANS)EEαAbuψ[COO]ASK(DABCYL)-NH2
T1 chain: DEDEEXASK

PROTEIN: D168A mutant HCV NS3 serine protease domain, genotype 1b (protein) APITAYSQQTRGLLGCIITSLTGRDRNQVEGEVQVVSTATQSFLATCVNGVCWTVYHGAGSKTLAGPKGPITQMYTNVDQDLVGWQAPPGARSLTPCTCGSSDLYLVTRHADVIPVRRRGDSRGSLLSPRPVSYLKGSSGGPLLCPSGHAVGIFRAAVCTRGVAKAVAFVPVESMETTMRSHHHHHH
QUANTITY_UNIT: s⁻¹
Kcat: 0.3
--
PROTEIN: wild type HCV NS3 serine protease domain, genotype 1b (Con1), residues Ala1-Ser181 with a C-terminal hexa-histidine tag (protein) APITAYSQQTRGLLGCIITSLTGRDRNQVEGEVQVVSTATQSFLATCVNGVCWTVYHGAGSKTLAGPKGPITQMYTNVDQDLVGWQAPPGARSLTPCTCGSSDLYLVTRHADVIPVRRRGDSRGSLLSPRPVSYLKGSSGGPLLCPSGHAVGIFRAAVCTRGVAKAVDFVPVESMETTMRSHHHHHH
QUANTITY_UNIT: s⁻¹
Kcat: 1
--
PROTEIN: A156S mutant HCV NS3 serine protease domain, genotype 1b (protein) APITAYSQQTRGLLGCIITSLTGRDRNQVEGEVQVVSTATQSFLATCVNGVCWTVYHGAGSKTLAGPKGPITQMYTNVDQDLVGWQAPPGARSLTPCTCGSSDLYLVTRHADVIPVRRRGDSRGSLLSPRPVSYLKGSSGGPLLCPSGHAVGIFRSAVCTRGVAKAVDFVPVESMETTMRSHHHHHH
QUANTITY_UNIT: s⁻¹
Kcat: 0.6
--
PROTEIN: D168V mutant HCV NS3 serine protease domain, genotype 1b (protein) APITAYSQQTRGLLGCIITSLTGRDRNQVEGEVQVVSTATQSFLATCVNGVCWTVYHGAGSKTLAGPKGPITQMYTNVDQDLVGWQAPPGARSLTPCTCGSSDLYLVTRHADVIPVRRRGDSRGSLLSPRPVSYLKGSSGGPLLCPSGHAVGIFRAAVCTRGVAKAVVFVPVESMETTMRSHHHHHH
QUANTITY_UNIT: s⁻¹
Kcat: 0.6
